system-name: Nuclear receptor subfamily 1 group I member 2 (Homo sapiens)
procedure-summary: Human pregnane X receptor (PXR) small molecule agonists, qHTS assay (AID 1346982); note: nearly all actives have a fitted effect of over 35% in size; for activation: % is set by controls: 0 for no effect and ±100 for the full control effect
assay-conditions: PXR-Luc HepG2, CYP3A4 luciferase reporter, 24 h; series mostly up to 92.4 µM
Results filed as inconclusive are left out. The source made the active and inactive calls. Calls come from the whole dose curve; as a rule, active = well fitted activation curve with a large enough effect in the repeat runs; inconclusive = weak or mixed curves; inactive = no such curve, though single readings can be large or run the other way.
Outcomes: active, inactive

| compound | system-name | qualitative-label |
| --- | --- | --- |
| CCC(C)(C)C1CCC(=O)CC1 | Nuclear receptor subfamily 1 group I member 2 (Homo sapiens) | inactive |
| COc1ccc(OC)c(NC(=O)CC(C)=O)c1 | Nuclear receptor subfamily 1 group I member 2 (Homo sapiens) | active |
| O=C1OC(=O)c2ccccc21 | Nuclear receptor subfamily 1 group I member 2 (Homo sapiens) | inactive |
| CCCCCCCC[Si](OCC)(OCC)OCC | Nuclear receptor subfamily 1 group I member 2 (Homo sapiens) | inactive |
| CCC1Nc2cc(Cl)c(S(N)(=O)=O)cc2S(=O)(=O)N1 (stereo not drawn) | Nuclear receptor subfamily 1 group I member 2 (Homo sapiens) | inactive |
| Nc1ccc(S(=O)(=O)NC(=O)c2ccccc2)cc1 | Nuclear receptor subfamily 1 group I member 2 (Homo sapiens) | inactive |
| Cc1oc(=O)oc1CN1CCN(c2cc3c(cc2F)c(=O)c(C(=O)O)c2n3C(C)S2)CC1 (stereo not drawn) | Nuclear receptor subfamily 1 group I member 2 (Homo sapiens) | inactive |
| NC(Cc1c[nH]c2ccccc12)C(=O)O (stereo not drawn) | Nuclear receptor subfamily 1 group I member 2 (Homo sapiens) | inactive |
| CC(C)CCCCCCOC(=O)C1CCCCC1C(=O)OCCCCCCC(C)C (stereo not drawn) | Nuclear receptor subfamily 1 group I member 2 (Homo sapiens) | inactive |
| CC(=O)/C=C/c1ccco1 | Nuclear receptor subfamily 1 group I member 2 (Homo sapiens) | inactive |
| CCCCC[Si](OCC)(OCC)OCC | Nuclear receptor subfamily 1 group I member 2 (Homo sapiens) | inactive |
| C[C@H](CCC(=O)NCC(=O)O)[C@H]1CC[C@H]2[C@@H]3[C@H](O)C[C@@H]4C[C@H](O)CC[C@]4(C)[C@H]3C[C@H](O)[C@]12C | Nuclear receptor subfamily 1 group I member 2 (Homo sapiens) | inactive |
| O=P(O)(O)OCC(O)CO (stereo not drawn) | Nuclear receptor subfamily 1 group I member 2 (Homo sapiens) | inactive |
| C=CCOC(=O)c1ccc(C(=O)OCC=C)c(C(=O)OCC=C)c1 | Nuclear receptor subfamily 1 group I member 2 (Homo sapiens) | inactive |
| Cc1nc2ccccc2c(=O)o1 | Nuclear receptor subfamily 1 group I member 2 (Homo sapiens) | inactive |
| CCCCCCCC/C=C\CCCCCCCC(=O)OC[C@@H](O)[C@H]1OC[C@H](O)[C@H]1O | Nuclear receptor subfamily 1 group I member 2 (Homo sapiens) | inactive |
| CCCOC(=O)CCCCC(=O)OCCC | Nuclear receptor subfamily 1 group I member 2 (Homo sapiens) | inactive |
| CC(=O)OCCCc1ccccc1 | Nuclear receptor subfamily 1 group I member 2 (Homo sapiens) | inactive |
| CC(C)COC(=O)/C=C/c1ccccc1 | Nuclear receptor subfamily 1 group I member 2 (Homo sapiens) | inactive |
| NC(=O)C1(N2CCCCC2)CCN(CCCC(=O)c2ccc(F)cc2)CC1 | Nuclear receptor subfamily 1 group I member 2 (Homo sapiens) | inactive |
| C/C=C(\C)C(=O)OCC/C=C\CC | Nuclear receptor subfamily 1 group I member 2 (Homo sapiens) | inactive |
| CC(=O)OCC(=O)[C@@]1(O)[C@H](OC(C)=O)C[C@H]2[C@@H]3CCC4=CC(=O)C=C[C@]4(C)[C@@]3(F)[C@@H](O)C[C@@]21C | Nuclear receptor subfamily 1 group I member 2 (Homo sapiens) | inactive |
| N#CCCOCCOCCC#N | Nuclear receptor subfamily 1 group I member 2 (Homo sapiens) | inactive |
| CCOC(=O)CCc1ccccc1 | Nuclear receptor subfamily 1 group I member 2 (Homo sapiens) | inactive |
| O=C(Oc1ccccc1C(=O)O)c1ccccc1O | Nuclear receptor subfamily 1 group I member 2 (Homo sapiens) | inactive |
| O=c1[nH]c(=O)c2ccccc2o1 | Nuclear receptor subfamily 1 group I member 2 (Homo sapiens) | inactive |
| CC1CCC(C(C)(C)S)C(=O)C1 (stereo not drawn) | Nuclear receptor subfamily 1 group I member 2 (Homo sapiens) | active |
| CCCCCCCCCCCCC1CO1 (stereo not drawn) | Nuclear receptor subfamily 1 group I member 2 (Homo sapiens) | inactive |
| C=CCOCC(O)CCl (stereo not drawn) | Nuclear receptor subfamily 1 group I member 2 (Homo sapiens) | inactive |
| CC1=CC[C@H](CC=O)C1(C)C | Nuclear receptor subfamily 1 group I member 2 (Homo sapiens) | active |
| NCCc1ccn[nH]1 | Nuclear receptor subfamily 1 group I member 2 (Homo sapiens) | inactive |
| NS(=O)(=O)c1cc2c(cc1Cl)NC(C(Cl)Cl)NS2(=O)=O (stereo not drawn) | Nuclear receptor subfamily 1 group I member 2 (Homo sapiens) | inactive |
| O=C(O)CCNC(=O)c1ccccc1 | Nuclear receptor subfamily 1 group I member 2 (Homo sapiens) | inactive |
| CC1=NN(c2ccc(S(=O)(=O)O)cc2)C(=O)C1N=Nc1ccccc1 (stereo not drawn) | Nuclear receptor subfamily 1 group I member 2 (Homo sapiens) | inactive |
| CCNC(=O)NCCCOc1cccc(CN2CCCCC2)c1 | Nuclear receptor subfamily 1 group I member 2 (Homo sapiens) | active |
| CC(=O)OC(C)c1ccccc1 (stereo not drawn) | Nuclear receptor subfamily 1 group I member 2 (Homo sapiens) | inactive |
| OC(CCN1CCCCC1)(c1ccccc1)c1ccccc1 | Nuclear receptor subfamily 1 group I member 2 (Homo sapiens) | inactive |
| COC(/C=C(\C)CCC=C(C)C)OC | Nuclear receptor subfamily 1 group I member 2 (Homo sapiens) | inactive |
| O=c1cc(O)c(Cl)c[nH]1 | Nuclear receptor subfamily 1 group I member 2 (Homo sapiens) | inactive |
| CCCCC(CC)C(=O)OC(C)C (stereo not drawn) | Nuclear receptor subfamily 1 group I member 2 (Homo sapiens) | inactive |
| CCCCOC(=O)C(C)OC(=O)CCC (stereo not drawn) | Nuclear receptor subfamily 1 group I member 2 (Homo sapiens) | inactive |
| O=C(/C=C/c1ccccc1)NCCO | Nuclear receptor subfamily 1 group I member 2 (Homo sapiens) | inactive |
| COc1cc2c3cc1Oc1cc(ccc1O)C[C@@H]1c4c(cc(OC)c(O)c4Oc4ccc(cc4)C[C@@H]3N(C)CC2)CC[N+]1(C)C | Nuclear receptor subfamily 1 group I member 2 (Homo sapiens) | inactive |

====

procedure-summary: qHTS assay for small molecule agonists of the p53 signaling pathway (AID 651631); note: % is set by controls: 0 for no effect and ±100 for the full control effect; nearly all actives have a fitted effect of over 15% in size
assay-conditions: HCT-116 p53RE-bla reporter, beta-lactamase FRET ratio, 16 h; series mostly up to 73.3 µM
Inconclusive results are not listed. Active and inactive are the calls of the source. The call rests on the fitted dose curve.
readout-type: activation

| compound | readout-type | test-result |
| --- | --- | --- |
| CCCCOC(=O)C(C)OC(=O)CCC (stereo not drawn) | activation | inactive |
| CCN(Cc1cccc(S(=O)(=O)O)c1)c1ccccc1 | activation | inactive |
| FC(F)(F)/C(=N\OCC1OCCO1)c1ccc(Cl)cc1 | activation | inactive |

====

procedure-summary: qHTS assay to test for compound auto fluorescence at 460 nm (blue) in HepG2 cells (AID 720687); note: % is set by controls: 0 for no effect and ±100 for the full control effect
assay-conditions: autofluorescence 405/460 nm, 1 h; series mostly up to 91.3 µM
Excerpt: U.S. Tox21 Program National Center for Advancing Translational Sciences [NCATS] NIH Chemical Genomics Center [NCGC] U.S. Environmental Protection Agency [EPA] National Institutes of Environmental Health Sciences [NIEHS] National Toxicology Program [NTP] U.S. Food and Drug Administration [FDA] Tox21 Assay Overview: Compound auto fluorescence often interferes with screening of the compound library against various biological targets and signaling pathways. […] This assay includes the blue fluorescence data. […]
Activity calls are given as the source filed them. The call rests on the fitted dose curve; in most records, active means well fitted curve in the direction sought with a large enough effect in the repeat runs; inconclusive means weak or mixed curves; inactive means flat fitted curve, though single readings scatter.

| structure-smiles | fluorescence, % of fluorescent control |
| --- | --- |
| CCCCCCCCCCCCCCCCI | 0.151% [at 18.6 µM] (inactive) |
| CC(C)c1ccccc1O | inactive |
| O=C1OC(=O)c2cc(Oc3ccc4c(c3)C(=O)OC4=O)ccc21 | inactive |

====

procedure-summary: A CellTox Green Cytotoxicity Assay to monitor cytotoxicity in HepG2 cells - 8 hour (AID 1224890); note: % is set by controls: 0 for no effect and ±100 for the full control effect; nearly all actives have a fitted effect of over 45% in size
assay-conditions: CellTox Green fluorescence; series mostly up to 76.8 µM
Inconclusive results are not listed. Active and inactive are the calls of the source. The call rests on the fitted dose curve; in most records, active means well fitted activation curve with a large enough effect in the repeat runs; inconclusive means weak or mixed curves; inactive means flat fitted curve, though single readings scatter.

| compound | cytotoxicity increase |
| --- | --- |
| CCCOC(=O)CCCCC(=O)OCCC | inactive |
| CC(C)c1ccccc1O | inactive |
| c1ccccc1 | inactive |
| CCCCCCCCOC(C)=O | inactive |
| CCCCCCCC[Si](OCC)(OCC)OCC | inactive |
| O=CO | -4.28% [at 6.97 µM] (inactive) |
| OC(CCN1CCCCC1)(c1ccccc1)c1ccccc1 | inactive |
| Nc1c(NC/C=C\COc2cc(CN3CCCCC3)ccn2)c(=O)c1=O | -13.1% [at 15.8 µM] (inactive) |
| CC(C)C(=O)Nc1cccc(C(F)(F)F)c1 | inactive |
| C1=CCC(c2ccccc2)CC1 (configuration not stated) | inactive |
| O=c1[nH]c(=O)c2[nH]c(=O)[nH]c2[nH]1 | 1.39% [at 6.97 µM] (inactive) |
| Cc1ccccc1N1CCN(CCc2nnc3n2CCCC3)CC1 | inactive |
| C[N+](C)(C)CC(O)CCl (configuration not stated) | inactive |
| Cn1c(=O)c2c(ncn2CC2OCCO2)n(C)c1=O | inactive |
| CC(C)(c1ccc(Oc2ccc3c(c2)C(=O)OC3=O)cc1)c1ccc(Oc2ccc3c(c2)C(=O)OC3=O)cc1 | inactive |
| Cc1cc(C)cc([N+](=O)[O-])c1 | inactive |
| CCOC(=O)OCC/C(SC(=O)OCC)=C(\C)N(C=O)Cc1cnc(C)nc1N | inactive |
